# System: SW-620 colon
# assay_method_text: NCI tumour cell line growth inhibition, 48 h
endpoint: TGI

A selection of reference data follows.
{"compound": "Cc1cc2c(cc1Br)C1(C)CCC(C)C1(C)O2 (stereo not given)", "target": "SW-620 colon", "TGI": "> 100 µM"}
{"compound": "CC[C@@H]1CC[C@@H]2[C@H](CC[C@]3(C)[C@@H](OS(=O)(=O)c4ccc(C)cc4)CC[C@@H]23)[C@H]1CO", "target": "SW-620 colon", "TGI": "> 100 µM"}
{"compound": "COc1ccc2c(c1)[C@@]1(C)CCC3c4ccc(O)cc4CCC3C1C2 (stereo not given in full)", "target": "SW-620 colon", "TGI": "36.1 µM"}
{"compound": "O=C(C#Cc1cn(C2CC(O)C(CO)O2)c(=O)[nH]c1=O)c1ccccc1 (stereo not given)", "target": "SW-620 colon", "TGI": "50.4 µM"}
{"compound": "CN(C)CCNC(=O)c1nc([N+](=O)[O-])cn1C", "target": "SW-620 colon", "TGI": "> 100 µM"}
{"compound": "COc1ccc2c(c1)CCCC1C3=NCCC3(C)CSC21 (stereo not given)", "target": "SW-620 colon", "TGI": "> 100 µM"}
{"compound": "N#Cc1nc(/C=C/c2ccccc2)oc1N", "target": "SW-620 colon", "TGI": "> 100 µM"}
{"compound": "CC(C)CCC/C(CBr)=C(\\Cl)CCl", "target": "SW-620 colon", "TGI": "3.07 µM"}

Asked: Any idea what its TGI is? The compound is CC1(C)[C@@H]2C[C@H]1C(Cc1cccc(C[C@H]3c4cc(-c5ccccn5)ncc4[C@H]4C[C@@H]3C4(C)C)c1)c1cc(-c3ccccn3)ncc12 (stereo not given in full)
Given back: > 45.6 µM

Asked: For O=C(O)c1ccc(C2C3C=CC(C3)C2[N+](=O)[O-])cc1 (stereo not given) , what is its reported TGI?
Given back: > 100 µM

---

Consider the following molecules and their measured TGI readings.
# Test system: HOP-62 NSCLC
# assay_method_text: NCI tumour cell line growth inhibition, 48 h

These solved cases illustrate the format of a correct answer.
{"molecule": "CO/C(=N\\N=C\\c1cccc(C(F)(F)F)c1)c1ccncc1", "data_value": "> 100 µM"}
{"molecule": "O=CN1CCN(C=S)CC1", "data_value": "> 100 µM"}
{"molecule": "CCC(C)C1(O)OC2CC3(C)OC(=CC3=O)/C(C)=C\\C3OC(=O)C1(C)C32 (stereo not drawn)", "data_value": "> 100 µM"}
{"molecule": "O=C(/C=C\\c1ccc2ccccc2n1)c1cc(Cl)ccc1O", "data_value": "20.7 µM"}
{"molecule": "NC1=C(Cl)C(=O)c2ccccc2C1=O", "data_value": "32 µM"}

Asked: Tell me the measured TGI of Cc1c(F)c(N)c2c(=O)cc(-c3ccc(NC(=O)C(N)CCCN=C(N)N)c(F)c3)oc2c1F (stereo not drawn) , please.
Given back: 99.6 µM

Asked: Reported TGI, molecule `CN(CCN(C)C(=O)CCOS(C)(=O)=O)C(=O)CCOS(C)(=O)=O` : ____
Given back: > 100 µM

---

# Tested on: U251 CNS
# assay_method_text: NCI tumour cell line growth inhibition, 48 h; in the data active = GI50 below about 0.43 µM; inactive = the rest
Please state which outcome applies, choosing from True (active), False (inactive)

{"molecule": "CN1C(=O)C(c2c[nH]c3ccccc23)=C(c2c(-c3c[nH]c4ccccc34)[nH]c3ccccc23)C1=O", "target": "U251 CNS", "category": "False"}
{"molecule": "COc1ccc(-c2nc3sc4c(c3c(=O)[nH]2)CCCC4)c2ccccc12", "target": "U251 CNS", "category": "True"}
{"molecule": "C=C1C(=O)O[C@H]2C[C@@H]1CCC1(C)OC1CC/C(C)=C/CC[C@H]2C (some centres not stated)", "target": "U251 CNS", "category": "False"}
{"molecule": "Cc1ccc(/C(=C/C=C(C#N)C#N)Sc2ccccn2)cc1", "target": "U251 CNS", "category": "False"}
{"molecule": "CCC(=O)c1ccc2c(c1)N(CCCN1CCN(CCO)CC1)c1ccccc1S2", "target": "U251 CNS", "category": "False"}

Asked: What is the recorded call for this molecule in the test? `Cc1ccc(Oc2nc3ccccc3cc2-c2nnc(Cn3c(COc4ccccc4)nc4ccccc43)o2)cc1`
Given back: False

Asked: For this molecule, state the assay outcome: COc1ccc2c(c1)[C@@]1(C)CCC3c4ccc(O)cc4CCC3C1C2 (some centres not stated)
Given back: False

Asked: Outcome logged for `COc1ccc2[nH]cc(-c3nc(-c4c[nH]c5ccncc45)cs3)c2c1` in this assay:
Given back: False

Asked: Which outcome was entered for the molecule `COc1ccc(-c2cc(-c3nnc(SCC(=O)Nc4ccc(C(C)=O)cc4)o3)c3ccccc3n2)cc1` in this test?
Given back: False

Asked: Dear all, I need the recorded test outcome for `O=C1CC/C(=C\COc2ccc3ccc(=O)oc3c2)O1` , thank you.
Given back: False

Asked: Write down the call the test reported for this molecule. Item: `COc1ccc(-c2ccccc2)cc1-c1c(Nc2cc(Cl)cc(Cl)c2O)c(=O)c1=O`
Given back: False

Asked: Query: recorded result category for `OCc1ccc(Oc2c3ccccc3nc3occc23)cc1` in this test
Given back: False

---

# System: MCF7 breast
# assay_method_text: NCI tumour cell line growth inhibition, 48 h
Reported TGI values for a set of compounds
Value expressed in µM; do not type the unit.

Record excerpt, results attached:
{"compound": "COC(=O)[C@]12CC=C3O[C@@H]4OC5(CCCCC5)O[C@@H]4[C@H]3C1C(=O)C=CC2=O (stereo not given in full)", "target": "MCF7 breast", "TGI (µM)": 35.5}
{"compound": "CCC(C)C1(O)OC2CC3(C)OC(=CC3=O)/C(C)=C\\C3OC(=O)C1(C)C32 (stereo not given)", "target": "MCF7 breast", "TGI (µM)": 28.4}

Alright, here's another compound for you.
Asked: Item `O=C1O[C@]2(c3ccccc3)C(c3ccccc3)=C[C@]2(C(=O)c2ccccc2)C1=O` has what recorded TGI?
Given back: 81.8

---

# System: HS 578T breast
# assay_method_text: NCI tumour cell line growth inhibition, 48 h
endpoint: TGI

Example compounds with recorded TGI:
{"compound": "COc1ccc(-c2csc3c2-n2cccc2C3=O)cc1O", "TGI": "> 100 µM"}
{"compound": "C/C=C\\C(CC(=O)NCCC1CN(C(=O)c2ccccc2)c2ccccc21)CC(=O)OC (centres undefined)", "TGI": "> 100 µM"}
{"compound": "COC1/C=C/C(C)C(C(C)C(OC)C(C)CCC(=O)C(C)C(C/C=C/N(C)C=O)OC)OC(=O)/C=C/C=C(\\C)CC(OC)C(OC)C2=CC(=O)O[C@@H](C(C)C(OC)CC(OC)/C=C/C(C)C(O)C1)[C@H]2O (some centres undefined)", "TGI": "0.16 µM"}

Asked: Quick check: TGI on HS 578T breast, item CCC(C)C1(O)OC2CC3(C)OC(=CC3=O)/C(C)=C\C3OC(=O)C1(C)C32 (centres undefined) ?
Given back: > 100 µM

---

# Tested on: SR leukemia
# assay_method_text: NCI tumour cell line growth inhibition, 48 h
Classification by TGI follows these ranges: lower: < 4 µM; middle: ≥ 4 µM and < 30 µM; upper: ≥ 30 µM

Asked: Would you mind sorting `CCOC(=O)/C(=C\c1ccc(F)cc1)C(C)=O` into the appropriate category?
Given back: upper

Asked: State the band of `COc1cc(CNc2nc3cc(C(F)(F)F)ccc3nc2C)cc(OC)c1OC`
Given back: upper

Asked: Band of `OCc1ccc(Oc2c3ccccc3nc3occc23)cc1` ?
Given back: upper

Asked: Consider `COc1cc(/C=C2\C(=O)Nc3ccccc32)cc(OC)c1OC` . To which TGI class does it belong?
Given back: upper

Asked: Class? Entry: `O=CN1CCN(C=S)CC1`
Given back: upper

Asked: Hey, which category is `C=C(C)[C@@H]1CC[C@]2(C(=O)NCCNCCNCCN)CC[C@]3(C)[C@H](CC[C@@H]4[C@@]5(C)CCC(=O)C(C)(C)[C@@H]5CC[C@]43C)[C@@H]12` in, do you know?
Given back: middle

Asked: Input `O=[N+]([O-])c1ccc(Cl)cc1C=NC12CC3CC(CC(C3)C1)C2` ; output its category
Given back: middle

Asked: Please let me know in which category the item `OCCO[P+]1(OCCO)n2c3ccc2C(c2ccccc2)=C2C=CC(=N2)C(c2ccccc2)=c2ccc(n21)=C(c1ccccc1)C1=NC(=C3c2ccccc2)C=C1` belongs.
Given back: lower

Asked: Quick check: band for CN1CCCCC(C(O)(c2ccccc2)c2ccccc2)C1=O (configuration not stated)
Given back: upper

Asked: Hi there! Could you help me figure out the category for `O=C1C[C@H](c2ccccc2)C2(C(=O)c3ccccc3C2=O)[C@H](c2ccccc2)C1` please?
Given back: upper

Asked: State the band of `COc1cc2c(cc1OC)-c1c(c3ccc([N+](=O)[O-])cc3c(=O)n1CCCN)C2=O`
Given back: lower

Asked: Band for `Cc1ccc2nc(Cl)c(/C=N/N3C(=O)/C(=C/c4ccc(N(C)C)cc4)N=C3c3ccccc3)cc2c1` ?
Given back: upper

Asked: Assign a bin to `CN(C)CCn1c(=O)c2ccc3c4c(nn3CCN(C)C)c3ccccc3n(c1=O)c24`
Given back: lower
